Sequence of the target: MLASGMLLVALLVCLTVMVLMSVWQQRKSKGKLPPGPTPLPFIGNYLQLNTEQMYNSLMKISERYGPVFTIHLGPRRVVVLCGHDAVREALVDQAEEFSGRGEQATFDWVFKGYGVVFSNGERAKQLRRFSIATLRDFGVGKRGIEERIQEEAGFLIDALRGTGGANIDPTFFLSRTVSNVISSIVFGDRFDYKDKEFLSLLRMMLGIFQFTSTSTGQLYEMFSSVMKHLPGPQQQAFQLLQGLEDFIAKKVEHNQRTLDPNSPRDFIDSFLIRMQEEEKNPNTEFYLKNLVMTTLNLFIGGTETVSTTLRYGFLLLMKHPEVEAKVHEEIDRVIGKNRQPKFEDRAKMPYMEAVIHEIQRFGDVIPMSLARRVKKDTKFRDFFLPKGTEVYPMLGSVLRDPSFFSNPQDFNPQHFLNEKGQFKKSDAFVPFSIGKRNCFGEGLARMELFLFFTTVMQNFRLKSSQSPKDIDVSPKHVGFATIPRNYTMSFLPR
Readout label: Ki (µM)
Report the value in µM with no unit label.

Asked: Name the reported Ki value associated with the compound CCCCCC(O)/C=C/C=O (stereo not shown)
Given back: 208
